system.tested: HLA-A3.2 (A*0301) (Homo sapiens)
assay.comment: biochemical
Format: binding
pIC50: −log10 of the molar value. No end group written: not given here.
Listed sequences paired with reported pIC50
result.type: pIC50

[[record]]
sequence_code = "LLRAVRIIK [Peptide 9017.0069]"
result_type = "pIC50"
value_reported = 7.16

[[record]]
sequence_code = "ALTALIKPKK [Peptide 9017.0229]"
result_type = "pIC50"
value_reported = 6.28

[[record]]
sequence_code = "SQTCALYWFR [Peptide 88.0165]"
result_type = "pIC50"
value_reported = 5.31

[[record]]
sequence_code = "EFTAFLGAFK [Peptide 88.0167]"
result_type = "pIC50"
value_reported = 5.33

[[record]]
sequence_code = "KVSEFRWYR [Peptide 78.0281]"
result_type = "pIC50"
value_reported = 7.37

[[record]]
sequence_code = "NTMDYTNWK [Peptide 88.0425]"
result_type = "pIC50"
value_reported = 5.80

[[record]]
sequence_code = "LLLIRFKCSK [Peptide 88.0191]"
result_type = "pIC50"
value_reported = 6.55

[[record]]
sequence_code = "KQNPDIVIY [Peptide 1595.10]"
result_type = "pIC50"
value_reported = 5.42

[[record]]
sequence_code = "AFRDLCIVYR [Peptide 78.0079]"
result_type = "pIC50"
value_reported = 5.51

[[record]]
sequence_code = "KLFLKGVPK [Peptide 1587.41]"
result_type = "pIC50"
value_reported = 7.80

[[record]]
sequence_code = "STVSVGTAK [Peptide 1589.09]"
result_type = "pIC50"
value_reported = 7.47

[[record]]
sequence_code = "FLSQVKIPK [Peptide 1589.05]"
result_type = "pIC50"
value_reported = 7.07

[[record]]
sequence_code = "VTYNSEVQR [Peptide 1589.29]"
result_type = "pIC50"
value_reported = 7.15

[[record]]
sequence_code = "GVVFGILIKK [Peptide 9012.0242]"
result_type = "pIC50"
value_reported = 6.32


###

system.tested: DRB1*0301 (Homo sapiens, UniProt P01903+P01911, A100K/A102G/A103R/A169T/F55Y/I96L/K41T/L162R/M171V/P40S/Q125H/Q178H/Q39Y/R42S/S66N/T106N/T262R/W38E/Y61H)
Sequence (P01903 26-254 limits assumed, other chains not shown): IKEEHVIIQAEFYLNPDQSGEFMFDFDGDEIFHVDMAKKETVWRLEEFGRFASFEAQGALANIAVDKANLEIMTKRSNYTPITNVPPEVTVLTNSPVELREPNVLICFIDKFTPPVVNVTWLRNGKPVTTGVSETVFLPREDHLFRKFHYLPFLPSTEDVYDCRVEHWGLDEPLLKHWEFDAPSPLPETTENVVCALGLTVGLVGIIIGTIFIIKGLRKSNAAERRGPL
assay.comment: biochemical
Assay type: binding
pIC50: −log10 of the molar value. No end group written: not given here.
Listed sequences paired with reported pIC50
result.type: pIC50

[[record]]
sequence_code = "LKSFLKGTPKKNCLV [Peptide 89.0035]"
censoring_operator = "<"
value_reported = 4.70

[[record]]
sequence_code = "AKLMSNLLSIPETCM [Peptide 89.0066]"
censoring_operator = "="
value_reported = 4.89

[[record]]
sequence_code = "DYVLDLQPEATDLHC [Peptide 1543.10]"
censoring_operator = "="
value_reported = 4.96

[[record]]
sequence_code = "ETCMLIEPPKLRSSV [Peptide 89.0084]"
censoring_operator = "="
value_reported = 6.44

[[record]]
sequence_code = "EVHMENESIYCPDSV [Peptide 90.0238]"
censoring_operator = "="
value_reported = 6.39

[[record]]
sequence_code = "DFLNTVKIPNTVSVS [Peptide 1601.28]"
censoring_operator = "<"
value_reported = 4.70

[[record]]
sequence_code = "TAIFGVNPTIAEGFK [Peptide 89.0024]"
censoring_operator = "="
value_reported = 6.43

[[record]]
sequence_code = "QSTQVDIRILQELLM [Peptide 1543.11]"
censoring_operator = "="
value_reported = 5.57

[[record]]
sequence_code = "GEIYIIEEDTCTMVT [Peptide 90.0202]"
censoring_operator = "="
value_reported = 7.26

[[record]]
sequence_code = "DNDVMDDSEIAYKYA [Peptide 90.0069]"
censoring_operator = "="
value_reported = 7.28

[[record]]
sequence_code = "NGVLQGITSWGPEPC [Peptide 68.0017]"
censoring_operator = "="
value_reported = 5.07

[[record]]
sequence_code = "SNEVSSPEIIRQHLA [Peptide 1601.06]"
censoring_operator = "="
value_reported = 5.32

[[record]]
sequence_code = "MNYVVWDSIYYITET [Peptide 90.0214]"
censoring_operator = "="
value_reported = 6.82


###

system.tested: A*3301 (Homo sapiens, UniProt P04439, A270S/D185E/E176V/E277Q/E87N/F33T/G231S/H175R/I121M/I218V/I322F/K168Q/K210R/L300P/L318F/M331R/P217A/Q86R/Q94H/R138Q/T323A/T345S/T97I/V358M/Y195H)
assay.comment: biochemical
Format: binding
No end group written: not given here.
Listed sequences paired with reported log10(IC50)
result.type: log10(IC50) (log10 of the value in µM)

[[record]]
sequence_code = "SLARRHIAR [Peptide 9017.0067]"
value_reported = -1.52

[[record]]
sequence_code = "KQSRAAKRR [Peptide 88.0325]"
value_reported = -0.29

[[record]]
sequence_code = "VVLLLVRYK [Peptide 1587.05]"
value_reported = -1.68

[[record]]
sequence_code = "MLIQPPKLR [Peptide 88.0340]"
value_reported = -0.84

[[record]]
sequence_code = "ATMCRHYKR [Peptide 1587.08]"
value_reported = -1.38

[[record]]
sequence_code = "AIRKAILGHR [Peptide 9017.0223]"
value_reported = 0.18

[[record]]
sequence_code = "SLYGKTLEER [Peptide 78.0142]"
value_reported = 0.74

[[record]]
sequence_code = "LSALKLFLK [Peptide 1587.39]"
value_reported = 0.26

[[record]]
sequence_code = "KSFFSRTWCK [Peptide 88.0170]"
value_reported = -1.66

[[record]]
sequence_code = "KVSEFRWYR [Peptide 78.0281]"
value_reported = -1.49

[[record]]
sequence_code = "KSFLKGTPK [Peptide 88.0344]"
value_reported = 1.21

[[record]]
sequence_code = "NSNAAAFLK [Peptide 88.0342]"
value_reported = -0.18

[[record]]
sequence_code = "ETQRQQFLK [Peptide 1589.32]"
value_reported = -1.10

[[record]]
sequence_code = "WTIAYIEYR [Peptide 9017.0116]"
value_reported = -1.85

[[record]]
sequence_code = "SIVGWPAVR [Peptide 9017.0058]"
value_reported = -0.33


###

Listed sequences paired with reported IC50
system.tested: DR7 (DRB1*0701) (Homo sapiens, UniProt P01903+P01911, A100R/A102G/A103Q/D57E/D86V/E43K/F76Y/K127E/L162R/M171V/P40G/Q125H/Q99D/R33Q/R42Y/R54Q/S133A/S66F/T210M/V115G/Y107V/Y59L/Y89S)
assay.comment: biochemical
Type: binding
No end group written: not given here.
result.type: IC50 (µM)

[[record]]
sequence_code = "DSVDSVNCGVISAAA [Peptide 1601.24]"
censoring_operator = "="
value_reported = 2.14

[[record]]
sequence_code = "DICNTMHYTNWTHIY [Peptide 1601.04]"
censoring_operator = "="
value_reported = 0.412

[[record]]
sequence_code = "LKAICIENNSKTAKR [Peptide 90.0064]"
censoring_operator = "="
value_reported = 6.35

[[record]]
sequence_code = "TNCMLIQPPKLRSTA [Peptide 89.0046]"
censoring_operator = "="
value_reported = 1.12

[[record]]
sequence_code = "DNDIVDDSEIAYKYA [Peptide 90.0037]"
censoring_operator = ">"
value_reported = 20

[[record]]
sequence_code = "GKSYFGMSLIHFLKG [Peptide 89.0146]"
censoring_operator = ">"
value_reported = 20

[[record]]
sequence_code = "DYVLDLQPEATDLHC [Peptide 1543.10]"
censoring_operator = ">"
value_reported = 20


###

system.tested: DRB1*1501 (Homo sapiens, UniProt P01903+P01911)
assay.comment: biochemical
Type: binding
pIC50: −log10 of the molar value. No end group written: not given here.
result.type: pIC50

[[record]]
sequence_code = "GKSYFGMSLISFLQG [Peptide 89.0056]"
result_type = "pIC50"
censoring_operator = "="
value_reported = 5.32

[[record]]
sequence_code = "RGIIILLLIRFRCSK [Peptide 89.0063]"
result_type = "pIC50"
censoring_operator = "="
value_reported = 6.37

[[record]]
sequence_code = "EVHVGGQVIVCPTSI [Peptide 89.0184]"
result_type = "pIC50"
censoring_operator = "<"
value_reported = 4.70

[[record]]
sequence_code = "VVTIPNSVQISVGYM [Peptide 1601.41]"
result_type = "pIC50"
censoring_operator = "="
value_reported = 5.46

[[record]]
sequence_code = "RREVYDFAFRDLCIV [Peptide 1543.25]"
result_type = "pIC50"
censoring_operator = "<"
value_reported = 4.70

[[record]]
sequence_code = "MVQVEEQQTTLSCNG [Peptide 89.0040]"
result_type = "pIC50"
censoring_operator = "<"
value_reported = 4.70

[[record]]
sequence_code = "LVQIKCPPLLITTNI [Peptide 89.0138]"
result_type = "pIC50"
censoring_operator = "<"
value_reported = 4.70

[[record]]
sequence_code = "SWGMVVLLLVRYKCG [Peptide 89.0005]"
result_type = "pIC50"
censoring_operator = "="
value_reported = 5.38

[[record]]
sequence_code = "TELNTSLQDIEITCV [Peptide 1543.34]"
result_type = "pIC50"
censoring_operator = "<"
value_reported = 4.70

[[record]]
sequence_code = "KIGMIDDVTPISWTY [Peptide 90.0087]"
result_type = "pIC50"
censoring_operator = "="
value_reported = 5.35

[[record]]
sequence_code = "MNYVVWDSIYYITET [Peptide 90.0214]"
result_type = "pIC50"
censoring_operator = "="
value_reported = 5.51

[[record]]
sequence_code = "HQVVPALSVSKAKAL [Peptide 89.0169]"
result_type = "pIC50"
censoring_operator = "<"
value_reported = 4.70

[[record]]
sequence_code = "STSDDTVSATQIVRQ [Peptide 1601.31]"
result_type = "pIC50"
censoring_operator = "<"
value_reported = 4.70

[[record]]
sequence_code = "RHLDKKQRFHNIRGR [Peptide 1543.26]"
result_type = "pIC50"
censoring_operator = "<"
value_reported = 4.70

[[record]]
sequence_code = "SNEVSSPEIIRQHLA [Peptide 1601.06]"
result_type = "pIC50"
censoring_operator = "="
value_reported = 5.27

[[record]]
sequence_code = "PEWIEQQTVLQHSFD [Peptide 89.0105]"
result_type = "pIC50"
censoring_operator = "="
value_reported = 4.95

[[record]]
sequence_code = "QQLLQVQTAHADKQT [Peptide 89.0115]"
result_type = "pIC50"
censoring_operator = "="
value_reported = 4.98

[[record]]
sequence_code = "LKGDANILKCLRYRL [Peptide 1601.26]"
result_type = "pIC50"
censoring_operator = "="
value_reported = 6.22

[[record]]
sequence_code = "FLSYFKLFLQGTPKH [Peptide 89.0132]"
result_type = "pIC50"
censoring_operator = "<"
value_reported = 4.70

[[record]]
sequence_code = "VKFLRYQQIEFVSFL [Peptide 89.0052]"
result_type = "pIC50"
censoring_operator = "="
value_reported = 6.27

[[record]]
sequence_code = "LKVLIKQHSLYTHLQ [Peptide 89.0061]"
result_type = "pIC50"
censoring_operator = "="
value_reported = 7.74

[[record]]
sequence_code = "QWVLTAAHCLKKNSQ [Peptide 68.0004]"
result_type = "pIC50"
censoring_operator = "<"
value_reported = 4.70

[[record]]
sequence_code = "LVQLKCPPLLLTSNT [Peptide 89.0077]"
result_type = "pIC50"
censoring_operator = "="
value_reported = 6.11

[[record]]
sequence_code = "GVNHQHLPARRAEPQ [Peptide 1543.05]"
result_type = "pIC50"
censoring_operator = "<"
value_reported = 4.70

[[record]]
sequence_code = "NHQVVPALSVSKAKA [Peptide 89.0168]"
result_type = "pIC50"
censoring_operator = "="
value_reported = 5.13

[[record]]
sequence_code = "DCKWGVLILALLRYK [Peptide 89.0026]"
result_type = "pIC50"
censoring_operator = "="
value_reported = 6.39

